As shown below, each of these compounds has a reported pEC50 value.
Biological target: Apoptosis regulator Bcl-2/Bcl-2 homologous antagonist/killer (Homo sapiens, UniProt P10415)
Sequence (P10415 whole entry): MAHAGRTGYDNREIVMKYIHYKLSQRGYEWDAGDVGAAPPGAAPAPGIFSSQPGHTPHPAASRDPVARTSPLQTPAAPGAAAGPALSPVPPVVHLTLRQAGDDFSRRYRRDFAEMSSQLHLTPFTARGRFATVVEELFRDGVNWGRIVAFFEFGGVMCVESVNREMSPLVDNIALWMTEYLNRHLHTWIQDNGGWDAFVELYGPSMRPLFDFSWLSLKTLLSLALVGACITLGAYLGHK
Sequence (Q16611 whole entry, further chain): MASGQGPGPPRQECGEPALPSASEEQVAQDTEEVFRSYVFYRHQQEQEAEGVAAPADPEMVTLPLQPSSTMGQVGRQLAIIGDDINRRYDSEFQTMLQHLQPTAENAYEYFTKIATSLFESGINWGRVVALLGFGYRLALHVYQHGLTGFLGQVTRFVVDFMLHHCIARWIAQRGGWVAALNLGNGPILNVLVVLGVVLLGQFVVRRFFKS
Assay: Inhibition of Bcl2-BAK interaction after 1 hr by surface plasmon resonance assay
pEC50: −log10 of the molar value.

| SMILES NOTATION | pEC50 |
| --- | --- |
| CC1(C)C2CC[C@@]1(CS(=O)(=O)NC(=O)c1ccc(N3CCN(Cc4ccccc4-c4ccc(Cl)cc4)CC3)cc1)C(=O)C2 | 5.83 |
| O=C(NS(=O)(=O)CC12CC3CC(C1)CC(NC(=O)C1CC1)(C3)C2)c1ccc(N2CCN(Cc3ccccc3-c3ccc(Cl)cc3)CC2)cc1 | 6.68 |
| CC1(C)[C@@]2(C)CC[C@H](CS(=O)(=O)NC(=O)c3ccc(N4CCN(Cc5ccccc5-c5ccc(Cl)cc5)CC4)cc3)[C@]1(C)C2 | 6.25 |
| CC(C)C(=O)NC12CC3CC(CC(CS(=O)(=O)NC(=O)c4ccc(N5CCN(Cc6ccccc6-c6ccc(Cl)cc6)CC5)cc4)(C3)C1)C2 | 6.80 |

----------
Assay: Half life in Sprague-Dawley rat at 1 mg/kg, iv and 10 mg/kg, po
Assay type: ADME, organism-based
Details: in vivo
As shown below, each of these compounds has a reported half-life value.
MEASURE: half-life (h)

| SMILES NOTATION | REPORTED VALUE |
| --- | --- |
| O=C(NS(=O)(=O)CC12CC3CC(CC(C3)C1)C2)c1ccc(N2CCN(Cc3ccccc3-c3ccc(Cl)cc3)CC2)cc1 | 1.3 |
| O=C(NS(=O)(=O)CC12CC3CC(CC(O)(C3)C1)C2)c1ccc(N2CCN(Cc3ccccc3-c3ccc(Cl)cc3)CC2)cc1 | 1.3 |

----------
Target: Apoptosis regulator Bcl-2/Bcl-2 homologous antagonist/killer (Homo sapiens, UniProt P10415)
Assay: Inhibition of Bcl2-BAK interaction after 1 hr by surface plasmon resonance assay
pEC50: −log10 of the molar value.

| SMILES NOTATION | RELATION SIGN | pEC50 |
| --- | --- | --- |
| O=C(NS(=O)(=O)CC12CC3CC(CC(C3)C1)C2)c1ccc(N2CCN(Cc3ccccc3-c3ccc(Cl)cc3)CC2)cc1 | = | 6.17 |
| O=C(NS(=O)(=O)CC12CC3CCC(CC(C3)C1)C2)c1ccc(N2CCN(Cc3ccccc3-c3ccc(Cl)cc3)CC2)cc1 | = | 6.92 |
| O=C(NS(=O)(=O)C12CC3CC(CC(C3)C1)C2)c1ccc(N2CCN(Cc3ccccc3-c3ccc(Cl)cc3)CC2)cc1 | < | 4.80 |
| CS(=O)(=O)NC(=O)c1ccc(N2CCN(Cc3ccccc3-c3ccc(Cl)cc3)CC2)cc1 | = | 5.06 |
| O=C(NS(=O)(=O)CC12CC3CC(CC(Br)(C3)C1)C2)c1ccc(N2CCN(Cc3ccccc3-c3ccc(Cl)cc3)CC2)cc1 | = | 6.17 |
| CC1(C)[C@]2(C)CC[C@@H](CS(=O)(=O)NC(=O)c3ccc(N4CCN(Cc5ccccc5-c5ccc(Cl)cc5)CC4)cc3)[C@@]1(C)C2 | = | 6.38 |
| O=C(NS(=O)(=O)NC12CC3CC(CC(C3)C1)C2)c1ccc(N2CCN(Cc3ccccc3-c3ccc(Cl)cc3)CC2)cc1 | = | 5.68 |
| CC1(C)C2CC[C@]1(CS(=O)(=O)NC(=O)c1ccc(N3CCN(Cc4ccccc4-c4ccc(Cl)cc4)CC3)cc1)C(=O)C2 | = | 5.99 |
| O=C(NS(=O)(=O)CC12CC3CC(CC(F)(C3)C1)C2)c1ccc(N2CCN(Cc3ccccc3-c3ccc(Cl)cc3)CC2)cc1 | = | 6.32 |
| CCS(=O)(=O)NC(=O)c1ccc(N2CCN(Cc3ccccc3-c3ccc(Cl)cc3)CC2)cc1 | = | 5.27 |
| O=C(NS(=O)(=O)CC12CC3CC(C1)CC(OCCN1CCOCC1)(C3)C2)c1ccc(N2CCN(Cc3ccccc3-c3ccc(Cl)cc3)CC2)cc1 | = | 6.51 |
| O=C(NS(=O)(=O)CCC12CC3CC(CC(C3)C1)C2)c1ccc(N2CCN(Cc3ccccc3-c3ccc(Cl)cc3)CC2)cc1 | = | 5.55 |
| O=C(NS(=O)(=O)CC12CC3CC(CC1C3)C2)c1ccc(N2CCN(Cc3ccccc3-c3ccc(Cl)cc3)CC2)cc1 | = | 5.58 |
| O=C(NS(=O)(=O)CC12CC3CC(C1)CC(c1ccccc1)(C3)C2)c1ccc(N2CCN(Cc3ccccc3-c3ccc(Cl)cc3)CC2)cc1 | = | 5.71 |
| CC12CC3CC(C1)CC(CS(=O)(=O)NC(=O)c1ccc(N4CCN(Cc5ccccc5-c5ccc(Cl)cc5)CC4)cc1)(C3)C2 | = | 5.96 |
